assay: yeast display, Sf9 membrane polyspecificity reagent, FACS + sequencing; frameworks hold sequencing errors
Result Type: polyreactivity (PSR sort gate)

QVQLVESGGGLVQAGGSLRLSCAASGRTFNRYAMGWYRQAPGKERELVAAISWSGGRTYYADSVKGRFTISRDNAKNTVYLQMNSMIPEATAVYYCAKEAYFRYDYCGQGTQVTVSS = low polyreactivity
QVQLVESGGGLVQAGGSLRLSCAASGRTFGYYAMGWYRQAPGKERELVAAIRSTGSTNYADSVKGRFTISRDNAKNTVYLQMNSLKPDDTAVYYCNADPWWRFDYWGQGTQVTVSS = low polyreactivity
QVQLVESGGGLVQAGGSLRLSCAASGSTFAPNTMGWYRQAPGKERELVARITTSDGSTTYADSVKGRFTISRDYAKNTVFFQMNILNPEDTAVYYCARDNTFCTWPSSLYDYWGQGTQVTVSS = low polyreactivity
QVQLVESGGGLVQAGGSLRLSCAASGFIFRYYAMGWYIQAPGKERELVATITRSGGSTYYADSVKGRFTLSRDNAKNTVYLQMNSLKPEDTAVYYCAADIYWYRGYGYWGQRTQVTVSS = high polyreactivity
QVQLVESGGGLVQAGGSLRLSCAASGSTFVGNAMGWYRQAPGKERELVAGITSSGTSTYYADSVKGRFTMSRDNAKNSVYLQMNRLKPEDTAVYYCATDDADESYGFELFDYWGLGTQVTVSS = low polyreactivity
QVHLVESGGGLVQAGGSLRLSCASSGSTFRSYGMGWYRPAPGKERELVAAISSSGGSTYYADSVKGRFTISRDNAKNTVYLQMNSLKPEDSAVYYCAAGSRLVSARLYYWGQGTQVTVSS = high polyreactivity
QVQLVESGGGLVQAGGSLRLSCAASGSTFYRNAMGWYRQARGKERELVAAISRGGSTYYADSVKGRFTISRDNAKNTVYLQMNSLKPEDTAVYYCNTDVNYAGYGWYYYWGQGTQVTVSS = high polyreactivity
QVQLVESGGGLVQAGGSLRLSCASSGFILDYNAMGWYRQAPGKERQLVATITGRGDRTYYADSVKGRFTISRDNAKNTVYLQMNSLKPEDTAVYYCAAGFDGSSHPGFDSWGQGTQVTVSS = low polyreactivity

Sure, the documented polyreactivity (PSR sort gate) for QVQLVESGGGLVQAGGSLRLSCAASGRTFRYYAMGWYRQAPGKERELVASISSSGSTNYADSVKGRFTISRDNAKNTVYLQMNSLKPEDTAVYYCAAESRYPFIYEYWGQGTQVTVSS is low polyreactivity

Sure, the documented polyreactivity (PSR sort gate) for QVQLVESGGGLVQAGGSLRLSCAASGRIFGRYAMGWYRQAPGKERELVAAISVSGGSTYYADSVKGRFTISRDNAKNTVYLQMNSLKPEDTAVYYCATEWRPRYYGTEPFDSWGQGTQVTVSS is high polyreactivity

====

assay: yeast display, Sf9 membrane polyspecificity reagent, FACS + sequencing; frameworks hold sequencing errors
Result Type: polyreactivity (PSR sort gate)

QVQLVESGGGLVQAGGSLRLSCAASGRTFKKYAMGWYRPAPRKERELVAAITGSGGSTYYADSVKGRFTISRDNAKNTVYLQMNSLKPEDTAVYYCAAYAYGVWHSQDGGNYWGQGTQVTVSS = low polyreactivity
QFQLVESGGGLVQAGGSLRLSCAASGSIFSVYTMGWYRQAPGKERELVAAISTGGGSTYYADSVKGRFTISRDNAKNTVYLQMNSLKPEDTAVYYCATDYGWAPSYWYDSCGQGTQVTVSS = low polyreactivity
QGQLVESRGGLVQAGGSLRLSCAASGFNLAYYAMGWYRQAPGKERELVAAISIGSSTDYADSVKGRFTISRDNAKNTVYLQMNSLKPEDTAVFYCAKRGPQVWTFDYDSWGQGTQVTVSS = low polyreactivity
QVQLVESGGGLVQAGGSLRLSCAASGNTFKYYVMGWYRQAPGKERELVAAITRGGSTYYADSVKGRFTISRDNAKNTVYLQMNSLKPEDTAVYYCATDVKIPNFDYWGQGTQVTVSS = high polyreactivity
QVQLVESGGGLVQAGGSLRLSCAASGSIFPYNAMGWYRQAPGKERELVAAITQSGGSTYYADSVKGRFTISRDNAKNTVYLQMNSLQPEDTAVYYCAADDYGPEGDYWGQGTQVTVSS = low polyreactivity
QVQLVESGGGLVQAGGSLRLSCAASGSILAGYAMGWYRQAPGKERELVAAITSGGGSTYYADSVKGRFTISSDNAKITVYLQMNSLKAEDTAVYYCARDSGYYYDEYYYWGQGTKVTVSS = low polyreactivity

Sure, the documented polyreactivity (PSR sort gate) for QVQLVESGGGLVQAGGSLRLICAASGRIFHGNAMGWYRQAPGKERELVAAISRRGGSTYYADSVKGRFTISRDNAKNTVYLQMNSLKPEDTAVYYCASVYYNGIRYGYWGQGTQVTVSS is high polyreactivity

Sure, the documented polyreactivity (PSR sort gate) for QVQLVESGGGLVHAGGSLRLSCAASGGIFYVNAMGWYRQAPGKERELVADIRYSGTSTYYADSVKGRFTISRDNAKNTVYLQMNSLKPEDTAVYYCAVDAWDTTHVYEQGAERDSWGQGTQVTVSS is low polyreactivity

Sure, the documented polyreactivity (PSR sort gate) for QVQLVESGGGLVQAGGSLRLSCAASGSTFADNAMGWYRQAPGKERELVASISSSATSTYYADSVKGRFTISRDNAKNTVYLQMNSLKPEDSAVYYCSKGRPWYRGDFWGQGTQVTVSS is low polyreactivity
